List of pEC50 values.
MEASURED_ON: human mAChRM1 (Homo sapiens, UniProt P11229)
Construct: host or cells: CHO-K1
MEASUREMENT_PROTOCOL: mAChR M1 cell-based functional assay (calcium mobilization), agonist activity upon compound addition, Emax relative to acetylcholine maximum
TEST_CONDITIONS: calcium mobilization upon compound addition
pEC50 (log units): -log10 of the concentration in mol/L.

As a guide, the following entries are already answered.
COMPOUND | MEASURED_ON | pEC50
[2H]C1([2H])c2ncccc2C(=O)N1Cc1c(F)cc(-c2ccc(C(C)(C)O)c3nn(C([2H])([2H])[2H])cc23)cc1F | human mAChRM1 (Homo sapiens, UniProt P11229) | 5.42
Cn1cc2c(-c3ccc(CN4Cc5ncccc5C4=O)c(F)c3)ccc(C(C)(C)O)c2n1 | human mAChRM1 (Homo sapiens, UniProt P11229) | 5.30
[2H]C([2H])([2H])C(C)(O)c1ccc(-c2cc(F)c(CN3Cc4ncccc4C3=O)c(F)c2)c2cn(C)nc12 (stereo not drawn) | human mAChRM1 (Homo sapiens, UniProt P11229) | 5.73

Notebook: pull reported pEC50 for human mAChRM1 (Homo sapiens, UniProt P11229), entry [2H]C1([2H])c2ncccc2C(=O)N1Cc1c(C)cc(-c2ccc(C(C)(C)O)c3nn(C)cc23)cc1F (single isomer, unassigned)
5.25

Notebook: pull reported pEC50 for human mAChRM1 (Homo sapiens, UniProt P11229), entry [2H]C([2H])([2H])n1cc2c(-c3cc(C)c(CN4Cc5ncccc5C4=O)c(F)c3)ccc(C(C)(C)O)c2n1 (single isomer, unassigned)
5.52

Notebook: pull reported pEC50 for human mAChRM1 (Homo sapiens, UniProt P11229), entry Cn1cc2c(-c3cc(F)c(CN4Cc5ncccc5C4=O)c(F)c3)ccc(C3(O)CCOCC3)c2n1
5.85

Notebook: pull reported pEC50 for human mAChRM1 (Homo sapiens, UniProt P11229), entry Cn1cc2c(-c3cc(F)c(CN4Cc5ncccc5C4=O)c(C4CC4)c3)ccc(C(C)(C)O)c2n1
5.28

Notebook: pull reported pEC50 for human mAChRM1 (Homo sapiens, UniProt P11229), entry Cn1cc2c(-c3cc(F)c(CN4Cc5ncccc5C4=O)c(F)c3)ccc(C3(O)CCOC3)c2n1 (stereo not drawn)
5.61

Notebook: pull reported pEC50 for human mAChRM1 (Homo sapiens, UniProt P11229), entry [2H]C1([2H])c2ncccc2C(=O)N1Cc1c(Cl)cc(-c2ccc(C(C)(C)O)c3nn(C)cc23)cc1C1CC1
5.17

Notebook: pull reported pEC50 for human mAChRM1 (Homo sapiens, UniProt P11229), entry Cn1cc2c(-c3cc(F)c(CN4Cc5cccnc5C4=O)c(C4CC4)c3)ccc(C(C)(C)O)c2n1
5.35

Notebook: pull reported pEC50 for human mAChRM1 (Homo sapiens, UniProt P11229), entry Cn1cc2c(-c3cc(F)c(CN4Cc5ncccc5C4=O)c(Cl)c3)ccc(C(C)(C)O)c2n1
5.34

Notebook: pull reported pEC50 for human mAChRM1 (Homo sapiens, UniProt P11229), entry [2H]C([2H])([2H])C(O)(c1ccc(-c2cc(F)c(CN3Cc4ncccc4C3=O)c(F)c2)c2cn(C)nc12)C([2H])([2H])[2H]
5.73

Notebook: pull reported pEC50 for human mAChRM1 (Homo sapiens, UniProt P11229), entry Cn1cc2c(-c3cc(F)c(CN4Cc5ccncc5C4=O)c(F)c3)ccc(C(C)(C)O)c2n1
5.25

Notebook: pull reported pEC50 for human mAChRM1 (Homo sapiens, UniProt P11229), entry Cn1cc2c(-c3cc(Cl)c(CN4Cc5ncccc5C4=O)c(Cl)c3)ccc(C(C)(C)O)c2n1
5.20

====

List of Emax values.
MEASURED_ON: human mAChRM1 (Homo sapiens, UniProt P11229)
Construct: host or cells: CHO-K1
Sequence (P11229 1-460): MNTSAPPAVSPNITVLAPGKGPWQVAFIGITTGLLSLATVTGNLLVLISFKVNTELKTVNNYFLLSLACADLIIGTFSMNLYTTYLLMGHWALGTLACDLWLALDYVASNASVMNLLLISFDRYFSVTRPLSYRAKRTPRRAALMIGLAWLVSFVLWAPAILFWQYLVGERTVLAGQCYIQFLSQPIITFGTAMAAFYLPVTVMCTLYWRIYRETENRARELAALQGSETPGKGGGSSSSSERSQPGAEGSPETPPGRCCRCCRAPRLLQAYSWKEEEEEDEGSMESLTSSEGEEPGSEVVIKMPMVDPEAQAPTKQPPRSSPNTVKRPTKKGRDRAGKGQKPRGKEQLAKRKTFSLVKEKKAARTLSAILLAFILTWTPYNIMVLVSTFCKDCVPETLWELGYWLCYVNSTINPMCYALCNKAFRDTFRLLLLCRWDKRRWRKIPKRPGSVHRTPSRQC
MEASUREMENT_PROTOCOL: mAChR M1 cell-based functional assay (calcium mobilization), positive allosteric modulator activity: increase in the EC20 acetylcholine response
TEST_CONDITIONS: PAM mode
The reply should be a number in %, with the unit left off.

As a guide, the following entries are already answered.
COMPOUND | MEASURED_ON | Emax / %
CCC(O)(CC)c1ccc(-c2cc(C)c(CN3Cc4ncccc4C3=O)c(F)c2)c2cn(C)nc12 [Compound 55] | human mAChRM1 (Homo sapiens, UniProt P11229) | 67
CC(C)(O)c1cc(-c2cc(F)c(CN3Cc4ncccc4C3=O)c(F)c2)c2[nH]nnc2c1 [Compound 83] | human mAChRM1 (Homo sapiens, UniProt P11229) | 39
Cn1cc2c(-c3cc(F)c(CN4Cc5cccnc5C4=O)c(C4CCCC4)c3)ccc(C(C)(C)O)c2n1 [Compound 136] | human mAChRM1 (Homo sapiens, UniProt P11229) | 86
CC(C)(O)c1ccc(-c2ccc(CN3Cc4cccnc4C3=O)c(F)c2)cc1 [Compound 127] | human mAChRM1 (Homo sapiens, UniProt P11229) | 81
Cc1cc(-c2cc(C(C)(C)O)cc3nn(C)cc23)ccc1CN1Cc2ncccc2C1=O [Compound 27] | human mAChRM1 (Homo sapiens, UniProt P11229) | 83

Returns the measured Emax for the input compound. Input: COc1cc(-c2ccc(C(C)(C)O)c3nn(C)cc23)cc(F)c1CN1Cc2cccnc2C1=O [Compound 116]
88

Returns the measured Emax for the input compound. Input: CC(C)c1cnc2c(c1)C(=O)N(Cc1c(F)cc(-c3ccc(C(C)(C)O)c4nn(C)cc34)cc1F)C2 [Compound 177]
75

Returns the measured Emax for the input compound. Input: C[C@@H](c1c(F)cc(-c2ccc(C(C)(C)O)c3nn(C)cc23)cc1F)N1Cc2ncccc2C1=O [Compound 98]
80

Returns the measured Emax for the input compound. Input: CC(C)(O)c1cc2cc(-c3cc(F)c(CN4Cc5ncccc5C4=O)c(F)c3)ccn2n1 [Compound 108]
70

Returns the measured Emax for the input compound. Input: [2H]C([2H])([2H])n1cc2c(-c3cc(F)c(CN4Cc5ncccc5C4=O)c(C4CC4)c3)ccc(C(C)(C)O)c2n1 (single isomer, unassigned) [Compound 16]
78

Returns the measured Emax for the input compound. Input: CC(C)(O)c1cncc(-c2cc(F)c(CN3Cc4ncccc4C3=O)c(F)c2)c1 [Compound 42]
48

Returns the measured Emax for the input compound. Input: Cn1cc2c(-c3cc(F)c(CN4Cc5ncccc5C4=O)c(F)c3)ccc(C3(O)CN(C(=O)OC(C)(C)C)C3)c2n1 [Compound 113]
76

Returns the measured Emax for the input compound. Input: [2H]C1([2H])c2ncccc2C(=O)N1Cc1c(F)cc(-c2ccc(C(C)(C)O)c3nn(C([2H])([2H])[2H])cc23)cc1C1CC1 (single isomer, unassigned) [Compound 147]
62

Returns the measured Emax for the input compound. Input: CC(C)(O)c1ccc(-c2ccc(CN3Cc4ncccc4C3=O)c(F)c2)cc1 [Compound 13]
72

Returns the measured Emax for the input compound. Input: CC(C)(O)c1ccc(-c2cc(F)c(CN3Cc4ncccc4C3=O)c(F)c2)cc1 [Compound 5]
79

====

MEASURED_ON: human mAChRM1 (Homo sapiens, UniProt P11229)
Construct: host or cells: CHO-K1
MEASUREMENT_PROTOCOL: mAChR M1 cell-based functional assay (calcium mobilization), agonist activity upon compound addition, Emax relative to acetylcholine maximum
TEST_CONDITIONS: calcium mobilization upon compound addition
MEASURED_ATTRIBUTE: Agonist Activity Human M1 EC50

As a guide, the following entries are already answered.
MOLECULE | MEASURED_ON | REPORTED
Cn1cc2cc(-c3ccc(CN4Cc5cccc(F)c5C4=O)c(F)c3F)cc(C(C)(C)O)c2n1 | human mAChRM1 (Homo sapiens, UniProt P11229) | inactive
CCC(C)(O)c1ccc(-c2cc(F)c(CN3Cc4ncccc4C3=O)c(F)c2)c2cn(C)nc12 (centres unmarked) | human mAChRM1 (Homo sapiens, UniProt P11229) | inactive
CC(C)(O)c1ccc(-c2cc(F)c(CN3Cc4ncccc4C3=O)c(F)c2)cc1 | human mAChRM1 (Homo sapiens, UniProt P11229) | inactive
Cc1cc(-c2ccc(C(C)(C)O)cc2)ccc1CN1Cc2cccnc2C1=O | human mAChRM1 (Homo sapiens, UniProt P11229) | inactive
Cn1cc2c(C(C)(C)O)cc(-c3ccc(CN4Cc5ncccc5C4=O)c(F)c3)cc2n1 | human mAChRM1 (Homo sapiens, UniProt P11229) | inactive

Returns the measured Agonist Activity Human M1 EC50 for the input molecule. Input: CC(C)(O)c1ccc(-c2cc(F)c(CN3Cc4ncccc4C3=O)c(F)c2)cc1F
inactive

Returns the measured Agonist Activity Human M1 EC50 for the input molecule. Input: CC(C)(O)c1ccc(-c2cc(F)c(CN3Cc4ncccc4C3=O)c(F)c2)c2ccccc12
inactive

Returns the measured Agonist Activity Human M1 EC50 for the input molecule. Input: Cn1cc2c(-c3cc(F)c(CN4Cc5ncccc5C4=O)c(F)c3)cc(C(C)(C)O)cc2n1
inactive

These measurements were taken from patent US20260138978A1.
